# experiment: Pharmacokinetics in nude mice after single IP or PO dose
# Type: in vivo, athymic nude (Nu/Nu) mice
# details: female, athymic nude (Nu/Nu), mouse, plasma, ip, 40 mg/kg
reported_metric: AUC(0-t)

Problem: Requested read-out: AUC(0-t). Entry: CCn1c2ccccc2c2cc(Nc3ccnc(NCCCN4CCOCC4)n3)ccc21
Result: 1870 ng·h/mL

###

# experiment: Pharmacokinetics in nude mice after single IP or PO dose
# Format: in vivo, athymic nude (Nu/Nu) mice
# details: female, athymic nude (Nu/Nu), mouse, plasma, po
reported_metric: MRT

Problem: // query MRT value for entry CCn1c2ccccc2c2cc(Nc3ccnc(NCCCN4CCOCC4)n3)ccc21
Result: 6.59 to 8.76 h
